B1: OR4K15 (parent)
chain: GUUAACGGUCAUAGGCCAUGGAAACUAGGAGCACCAUUUCGCUGCCAGUGAAGAAAUGAACAAAGAAAAUCUGGGCCAGGCAGGCAUCAAAAGAAAUAGUCUUGCGCUCAACCAGAAAGUCUGUAAUCAUUUUAAGGGUA

Variants of: B1
assay_details: self-cleavage, relative activity (ratio to wild type); higher = more cleavage; in vitro, sequencing; the parent is a self-cleaving ribozyme
quantity_name: self-cleavage
Give your answer as a number; write no unit.

self-cleavage measured on A18G C101A = 0.06

self-cleavage measured on A68G U124A = 0.95

self-cleavage measured on U38G A86U = 1.6

self-cleavage measured on U57G A129U = 1.78

self-cleavage measured on A66G A82U = 0.29

self-cleavage measured on A51C A52G = 1.83

self-cleavage measured on G75C A126G = 0.12

self-cleavage measured on G1U A69U = 1.22

self-cleavage measured on A54G A96U = 2.04

self-cleavage measured on A62G U108A = 0.01

self-cleavage measured on U38A A90U = 2.21

self-cleavage measured on A11G G93A = 2.04

self-cleavage measured on A18U A90G = 0.53

The reported measurements were obtained from the RNAGym collection of RNA variant scans (doi:10.7554/elife.90254).
